experiment: small molecules captured by biotinylated probe aFGF2 – biochemical, small-molecule microarray, fluorescence 635/667, stem cell growth factor project, primary screen (AID 1067); conditions: higher = more signal;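 further: measures binding of biotinylated aFGF2 protein to printed compounds on slides; z-score merges feature fluorescence and signal-to-noise across triplicate slides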
REPORTED_PROPERTY: composite z-score

>  <COMPOUND>
COc1ccc([Si](C)(C)[C@H]2[C@H](CC(=O)N3CCC[C@H]3CO)O[C@@]3(C(=O)N(Cc4cccc(N5CCC5=O)c4)c4ccccc43)[C@@H]2C)cc1

>  <REPORTED_RESULT>
0.0496

$$$$
>  <COMPOUND>
Cc1ccc(S[C@]2(C(=O)NCCCN(C)C)CC(=O)N(Cc3ccccc3)[C@@H]2c2ccc(CO)cc2)cc1

>  <REPORTED_RESULT>
-0.145

$$$$
>  <COMPOUND>
C=C(C(=O)CC[C@@H](OC(C)=O)c1ccc(OCCO)cc1)C(C)C

>  <REPORTED_RESULT>
-0.0676

$$$$
>  <COMPOUND>
COCCOC(=O)N1C(=O)[C@@]2(c3cc(C#CC4=CCCCC4)ccc31)[C@H](c1ccc(OCCO)cc1)N1[C@H](c3ccccc3)[C@H](c3ccccc3)OC(=O)[C@H]1[C@@H]2C(=O)Nc1nc2ccccc2s1

>  <REPORTED_RESULT>
-0.104

$$$$
>  <COMPOUND>
CCCCN1CC=CC23O[C@@H]4/C=C\CCCOC(=O)C4[C@H]2C(=O)N(C(C)CO)[C@@H]3C1=O (stereo partly specified)

>  <REPORTED_RESULT>
-0.0963

$$$$
>  <COMPOUND>
COc1ccc(C#Cc2ccc3c(c2)[C@]2(C(=O)N3)[C@H](C(=O)N3CCc4cc(OC)c(OC)cc4C3)[C@H]3C(=O)O[C@H](c4ccccc4)[C@H](c4ccccc4)N3[C@@H]2c2ccc(OCCO)cc2)cc1

>  <REPORTED_RESULT>
0.0019

$$$$
